# system: Galactofuranosyltransferase GlfT2 (Mycobacterium tuberculosis)
# Sequence (O53585 whole entry): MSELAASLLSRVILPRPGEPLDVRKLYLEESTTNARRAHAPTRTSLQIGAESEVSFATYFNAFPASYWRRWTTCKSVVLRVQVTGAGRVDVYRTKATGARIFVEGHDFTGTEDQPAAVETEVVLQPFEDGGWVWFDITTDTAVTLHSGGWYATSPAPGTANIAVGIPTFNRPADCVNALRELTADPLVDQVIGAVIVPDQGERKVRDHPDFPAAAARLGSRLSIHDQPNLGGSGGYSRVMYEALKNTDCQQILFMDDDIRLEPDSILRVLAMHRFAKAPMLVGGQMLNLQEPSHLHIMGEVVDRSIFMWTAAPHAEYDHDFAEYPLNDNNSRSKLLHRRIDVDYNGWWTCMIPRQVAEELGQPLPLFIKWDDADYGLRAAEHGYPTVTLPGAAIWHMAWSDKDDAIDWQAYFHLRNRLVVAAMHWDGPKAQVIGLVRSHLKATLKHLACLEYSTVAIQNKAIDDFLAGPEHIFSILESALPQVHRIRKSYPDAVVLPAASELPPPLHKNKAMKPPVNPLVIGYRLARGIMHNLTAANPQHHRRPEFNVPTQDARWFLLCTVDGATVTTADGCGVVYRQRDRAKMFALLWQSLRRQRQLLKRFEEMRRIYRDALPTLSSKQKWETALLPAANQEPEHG
measure-name: IC50 (µM)

>>> recorded_result("O=C(C[C@H]1O[C@H](CO)[C@H](O)[C@H](O)[C@H]1O)N[C@@H](Cc1cnc[nH]1)C(=O)NC[C@H]1O[C@@H](n2ccc(=O)[nH]c2=O)[C@H](O)[C@@H]1O")
332

* * *

Reported inhibition values are given for each entry in this list.
# system: UniProt O53585
# assay-details: Inhibition of Mycobacterium tuberculosis GIFT2 at 2 mM at pH7.6 by spectrophotometric assay
measure-name: inhibition

>>> recorded_result("O=C(C[C@H]1O[C@@H](CO)[C@H](O)[C@H]1O)N[C@@H](Cc1c[nH]c2ccccc12)C(=O)NC[C@H]1O[C@@H](n2ccc(=O)[nH]c2=O)[C@H](O)[C@@H]1O")
"30%"
>>> recorded_result("O=C1CCN([C@@H]2O[C@H](CNC(=O)[C@H](Cc3c[nH]c4ccccc34)NC(=O)C[C@@H]3O[C@@H](CO)[C@H](O)[C@H]3O)[C@@H](O)[C@H]2O)C(=O)N1")
"< 10%"
>>> recorded_result("O=C1CCN([C@@H]2O[C@H](CNC(=O)[C@H](Cc3c[nH]c4ccccc34)NC(=O)C[C@H]3O[C@@H](CO)[C@H](O)[C@H]3O)[C@@H](O)[C@H]2O)C(=O)N1")
"< 10%"
>>> recorded_result("O=C(C[C@@H]1O[C@@H](CO)[C@H](O)[C@H]1O)N[C@@H](Cc1cnc[nH]1)C(=O)NC[C@H]1O[C@@H](n2ccc(=O)[nH]c2=O)[C@H](O)[C@@H]1O")
"14%"
>>> recorded_result("O=C1CCN([C@@H]2O[C@H](CNC(=O)[C@H](Cc3cnc[nH]3)NC(=O)C[C@@H]3O[C@@H](CO)[C@H](O)[C@H]3O)[C@@H](O)[C@H]2O)C(=O)N1")
"< 10%"
>>> recorded_result("O=C(C[C@@H]1O[C@@H](CO)[C@H](O)[C@H]1O)N[C@@H](Cc1c[nH]c2ccccc12)C(=O)NC[C@H]1O[C@@H](n2ccc(=O)[nH]c2=O)[C@H](O)[C@@H]1O")
"< 10%"
>>> recorded_result("O=C1CCN([C@@H]2O[C@H](CNC(=O)[C@H](Cc3cnc[nH]3)NC(=O)C[C@H]3O[C@@H](CO)[C@H](O)[C@H]3O)[C@@H](O)[C@H]2O)C(=O)N1")
"< 10%"
>>> recorded_result("O=C(C[C@H]1O[C@@H](CO)[C@H](O)[C@H]1O)N[C@@H](Cc1cnc[nH]1)C(=O)NC[C@H]1O[C@@H](n2ccc(=O)[nH]c2=O)[C@H](O)[C@@H]1O")
"37%"

FYI, the data here is from ChEMBL document CHEMBL1641436.
